assayed system: RNA-directed RNA polymerase (Hepacivirus hominis, UniProt O39930, M414T)
Sequence (O39930 entry or part of it M414T): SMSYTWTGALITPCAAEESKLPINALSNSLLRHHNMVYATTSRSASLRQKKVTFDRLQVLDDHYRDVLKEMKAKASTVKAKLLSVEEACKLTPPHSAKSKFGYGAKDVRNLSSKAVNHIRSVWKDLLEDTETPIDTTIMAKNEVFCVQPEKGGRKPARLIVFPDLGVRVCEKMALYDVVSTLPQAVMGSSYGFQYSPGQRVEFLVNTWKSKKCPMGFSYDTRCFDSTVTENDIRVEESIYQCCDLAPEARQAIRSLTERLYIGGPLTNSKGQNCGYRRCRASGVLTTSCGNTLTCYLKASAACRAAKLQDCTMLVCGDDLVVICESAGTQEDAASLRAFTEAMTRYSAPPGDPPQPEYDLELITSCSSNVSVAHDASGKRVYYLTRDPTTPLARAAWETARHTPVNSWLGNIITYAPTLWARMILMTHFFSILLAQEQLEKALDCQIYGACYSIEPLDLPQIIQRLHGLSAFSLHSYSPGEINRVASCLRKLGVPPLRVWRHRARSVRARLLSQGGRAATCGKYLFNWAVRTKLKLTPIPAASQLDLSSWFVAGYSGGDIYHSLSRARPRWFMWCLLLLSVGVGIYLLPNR
assay: Inhibition of RNA-dependent RNA polymerase activity of HCV genotype 1b HC-J4 recombinant N-terminal histidine tagged C-terminal 21 aminoacids truncated NS5B polymerase M414T mutant at palm site 1 after 1 hr by standard primer dependent elongation assay
readout type: pIC50
Numbers only, as −log10 of the molar value.

Measured pIC50, "CN1c2c(C(=O)Nc3ccc(NS(C)(=O)=O)cc3)nn(-c3cccc(Cl)c3)c2-c2ccccc2S1(=O)=O" : 3.89

* * *

assay: Apparent permeability of the compound after 5 hrs by PAMPA-GI model analysis
Format: physicochemical
readout type: Papp
Please answer using the number first and the unit second.

Measured Papp, "CN1c2c(C(=O)Nc3ccc(NS(C)(=O)=O)cc3)nn(-c3cccc(Cl)c3)c2-c2ccccc2S1(=O)=O" : 2.3 ×10⁻⁶ cm/s
